Biological target: T1, human CD36 (on HEK 293 or SCC25 cells) (human, UniProt P16671 2-472)
T1 construct: Overexpressed transiently or stably on HEK 293 cells, or stably on SCC25 cells; also called huCD36
T1 sequence (P16671 2-472 limits assumed): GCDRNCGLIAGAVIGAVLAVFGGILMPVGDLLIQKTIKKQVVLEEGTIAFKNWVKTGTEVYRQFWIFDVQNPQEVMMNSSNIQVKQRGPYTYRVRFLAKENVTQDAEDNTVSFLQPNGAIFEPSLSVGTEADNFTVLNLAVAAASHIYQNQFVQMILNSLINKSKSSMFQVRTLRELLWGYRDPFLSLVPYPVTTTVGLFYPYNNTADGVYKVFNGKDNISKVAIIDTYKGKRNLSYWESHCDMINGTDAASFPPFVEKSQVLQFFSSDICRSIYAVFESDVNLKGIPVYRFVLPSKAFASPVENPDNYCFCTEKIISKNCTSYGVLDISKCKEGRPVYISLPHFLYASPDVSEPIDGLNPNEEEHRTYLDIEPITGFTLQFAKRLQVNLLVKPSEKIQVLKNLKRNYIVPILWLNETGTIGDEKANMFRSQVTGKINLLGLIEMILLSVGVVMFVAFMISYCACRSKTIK
Experiment: FACS, SCC25 cells stably overexpressing human CD36
assay endpoint: pEC50
Numbers only, as −log10 of the molar value.

32G04 (antibody, human IgG1, V domains shown, Chimeric: mouse variable regions on human IgG1 LALA (L234A/L235A); also called 032G04) VH: EEKLEESGGGLVQPGGSMKLSCVASGFTFSNYWMNWVRQSPEKGLEWVAEIRLKSNNYATHYAESVKGRFTISRDDSKSSVYLQMNNLRAEDTGIYYCTPLLLRWGQGTTLTVSS VL: ENVLTQSPAIMSASPGEKVTMTCRASSSLSSTYLHWYQQKSGASPKLWIYSTSNLASGVPARFSGSGSGTSYSLTISSVEAEDAATYYCQQYSGYPLTFGSGTKLEIK; 8.73

Batch request: pEC50 for each of the following binders.
1. 10G04 (antibody, human IgG1, V domains shown, Chimeric: mouse variable regions on human IgG1 LALA (L234A/L235A); also called 010G04) VH: DVQLQESGPELVKPGASVKISCKASGYTFTDYNMHWVKQSHGKSLEWIGYIYPYNGGTGYNQKFKSKATLTVDNSSSTAYMELRSLTSEDSAVYYCARDGGYDVYFDYWGQGTTLTVSS VL: DVVMTQTPLSLPVSLGDQASISCRSSQSLVHSNGNTYLHWYLQKPGQSPKLLIYKVSNRFSGVPDRFSGSGSGTDFTLKISRVEAEDLGVYYCFQGSHVPWTFGGGTKLEIK
2. 9G04 (antibody, human IgG1, V domains shown, Chimeric: mouse variable regions on human IgG1 LALA (L234A/L235A); also called 09G04; 009G04) VH: QVQLQQSGAELVRPGASVTLSCKASGYTFTDYEMHWVKQTPVHGLEWIGTVDPETGGTAFNQKFKDKASLTADKSSSTVYMELRSLTSEDSAVYYCSRGYGNYGAWFAYWGQGTLVTVSA VL: ETTVTQSPASLSVATGEKVTIRCITSTDIDDDMNWYQQKPGEPPKLLISEGNTLRPGVPSRFSSSGYGTDFVFTIENMLSEDVADYYCLQSDNLPFTFGSGTKLEIK

Output:
8.48
9.39
